Target: Beta1 (Homo sapiens, UniProt P08588)
Construct: NIMH PDSP
Sequence (P08588 whole entry): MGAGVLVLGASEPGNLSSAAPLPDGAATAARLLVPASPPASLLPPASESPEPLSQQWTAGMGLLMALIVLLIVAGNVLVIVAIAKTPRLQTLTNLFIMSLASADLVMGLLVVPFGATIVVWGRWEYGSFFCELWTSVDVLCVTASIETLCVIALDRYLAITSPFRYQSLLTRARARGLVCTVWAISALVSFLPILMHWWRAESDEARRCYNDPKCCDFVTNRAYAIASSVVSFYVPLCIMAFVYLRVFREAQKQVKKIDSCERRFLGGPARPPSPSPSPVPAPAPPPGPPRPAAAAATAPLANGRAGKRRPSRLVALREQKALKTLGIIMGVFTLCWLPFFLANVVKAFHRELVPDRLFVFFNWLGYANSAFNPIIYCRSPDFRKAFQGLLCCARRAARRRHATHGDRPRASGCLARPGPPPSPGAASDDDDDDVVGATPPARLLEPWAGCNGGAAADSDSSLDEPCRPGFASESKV
Experiment: NIMH PDSP radioligand binding, membranes
Details: read-out: Ki #1-#5 (individual assays)
pKi: −log10 of the molar value.
quantity-name: pKi

# molecule `c1ccc2c(c1)N=C(N1CCNCC1)c1ccccc1N2` ; its pKi = < 5.00

====

Target: M2 (Homo sapiens)
Sequence (P08172 whole entry): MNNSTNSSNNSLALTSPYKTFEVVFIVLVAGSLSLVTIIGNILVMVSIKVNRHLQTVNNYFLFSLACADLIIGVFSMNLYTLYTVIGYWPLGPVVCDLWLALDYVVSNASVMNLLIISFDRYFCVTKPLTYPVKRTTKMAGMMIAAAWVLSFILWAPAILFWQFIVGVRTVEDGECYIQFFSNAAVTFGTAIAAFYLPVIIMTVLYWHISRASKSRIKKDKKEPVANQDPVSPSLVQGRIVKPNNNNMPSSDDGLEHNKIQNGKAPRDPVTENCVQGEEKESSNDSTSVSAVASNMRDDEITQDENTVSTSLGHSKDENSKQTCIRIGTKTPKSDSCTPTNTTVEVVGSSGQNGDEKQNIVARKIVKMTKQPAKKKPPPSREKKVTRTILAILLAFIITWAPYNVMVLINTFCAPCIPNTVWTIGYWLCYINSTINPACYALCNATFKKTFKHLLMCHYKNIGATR
Assay: NIMH PDSP radioligand binding, membranes
Conditions: read-out: Ki
quantity-name: Ki (nM)
One number for each entry, in nM.

# compound `c1ccc2c(c1)N=C(N1CCNCC1)c1ccccc1N2` ; its Ki = 146

====

Target: 5-HT2B (Homo sapiens)
Sequence (P41595 whole entry, species assumed): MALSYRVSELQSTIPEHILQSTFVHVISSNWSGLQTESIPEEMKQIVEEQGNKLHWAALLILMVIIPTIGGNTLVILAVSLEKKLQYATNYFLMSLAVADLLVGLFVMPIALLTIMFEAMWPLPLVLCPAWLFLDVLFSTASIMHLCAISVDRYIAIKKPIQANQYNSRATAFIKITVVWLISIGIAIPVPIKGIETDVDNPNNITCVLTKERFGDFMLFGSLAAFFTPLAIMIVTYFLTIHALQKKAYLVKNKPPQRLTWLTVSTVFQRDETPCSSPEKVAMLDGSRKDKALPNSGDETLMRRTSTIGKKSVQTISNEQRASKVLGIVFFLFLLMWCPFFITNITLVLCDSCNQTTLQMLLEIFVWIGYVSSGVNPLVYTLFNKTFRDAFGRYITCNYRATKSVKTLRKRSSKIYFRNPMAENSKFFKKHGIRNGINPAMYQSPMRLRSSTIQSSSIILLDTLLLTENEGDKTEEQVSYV
Experiment: NIMH PDSP radioligand binding, membranes
Conditions: read-out: Ki
quantity-name: Ki
Answer format reminder: number followed by unit.

# compound `c1ccc2c(c1)N=C(N1CCNCC1)c1ccccc1N2` ; its Ki = 32.7 nM
